biological target: human SOS1 (loading of human K-Ras^G12C-GDP with fluorescent GTP-analog) (Homo sapiens); assay: Biochemical assay 3: K-Ras^G12C activation assay by hSOS1 (HTRF); conditions: E-notation values; unit inferred; read-out: Assay 3 (KRAS-Activation) IC50
pIC50: −log10 of the molar value.
outcome-measure: pIC50

compound	reported-relation	endpoint-value
COc1cc2nc(C)nc(NC(C)c3ccc(-c4cc(Cl)ccc4CNC(=O)OC(C)(C)C)s3)c2cc1OC (centres unmarked)	=	5.08
COc1cc2nc(C)nc(NC(C)c3cc(Cl)c(-c4ccccc4CN(C)C)s3)c2cc1OC (centres unmarked)	=	6.52
Cc1nc(NC(C)c2ccc(Br)s2)c2cc([N+](=O)[O-])ccc2n1 (centres unmarked)	<	4.70
C#CC(O)c1ccccc1-c1ccc(C(C)Nc2nc(C)nc3cc(OC)c(OC)cc23)s1 (centres unmarked)	=	5.84
Cc1nc(NC(C)c2ccc(-c3ccccc3CN(C)C)s2)c2cc(N3CCN(Cc4ccccc4)C(=O)C3)ccc2n1 (centres unmarked)	=	7.34
COc1cc2nc(C)nc(NC(C)c3cccc(OCc4ccccc4)c3)c2cc1OC (centres unmarked)	=	4.77
Cc1nc(NC(C)c2ccc(-c3ccccc3CN(C)C)s2)c2cc(N3CCN(C)CC3)ccc2n1 (centres unmarked)	=	7.45
COc1cc2nc(C)nc(NC(C)c3cc(C)c(-c4ccc(F)cc4CN)s3)c2cc1OC (centres unmarked)	=	6.53
COc1cc2nc(C)nc(NC(C)c3ccc(-c4ccccc4C(O)c4ccccc4)s3)c2cc1OC (centres unmarked)	=	5.19
Cc1ccc2nc(C)nc(N[C@H](C)c3cccc(Cl)c3)c2c1	=	5.03
COc1cc2nc(C)nc(NC(C)c3ccc(-c4c(Cl)cccc4CNC(=O)OC(C)(C)C)s3)c2cc1OC (centres unmarked)	=	5.99
Cc1nc(N[C@H](C)c2cccc(Cl)c2)c2cc(-c3cn[nH]c3)ccc2n1	=	5.88
Cc1nc(NC(C)c2ccc(Br)s2)c2cc(NCCN3CCOCC3)ccc2n1 (centres unmarked)	=	4.95
COc1cc2nc(C)nc(NC(C)c3ccc(-c4ccccc4C(C)(C)N)s3)c2cc1OC (centres unmarked)	=	6.11
COc1cc2nc(C)nc(NC(C)c3sc(Br)cc3Cl)c2cc1OC (centres unmarked)	=	5.99
Cc1nc(NC(C)c2ccc(Br)s2)c2cc(N3CCC(N(C)C)C3)ccc2n1 (centres unmarked)	=	5.84
COc1cc2nc(C)nc(NC(C)c3ccc(-c4ccccc4C(O)Cc4ccccc4)s3)c2cc1OC (centres unmarked)	=	4.75

====

target: human SOS1 (nucleotide exchange of K-Ras^G12C) (Homo sapiens, UniProt Q07889); experiment: Biochemical assay 2: K-Ras^G12C activation assay by hSOS1 at high GTP concentration (HTRF); details: high GTP; read-out: Assay 2 (KRAS-Activation by SOS high GTP) activity expressed as IC50
pIC50: −log10 of the molar value.

compound	pIC50
COc1cc2nc(C)nc(N[C@H](C)c3cccc(C4CC4(C)C)c3)c2cc1OC (stereo partly shown) [Example 58]	5.79
COc1cc2nc(C)nc(NC(C)c3ccc4nsnc4c3)c2cc1OC (stereo not shown) [Example 229]	5.11
COc1cc2nc(C)nc(N[C@H](C)c3cccc(-c4c[nH]cn4)c3)c2cc1OC [Example 342]	6.00
COc1cc2nc(C)nc(N[C@H](C)c3cccc(-c4cccc(CNS(C)(=O)=O)c4)c3)c2cc1OC [Example 71]	6.19
Cc1nc(N[C@H](C)c2ccccc2)c2cc(N=S(C)(C)=O)ccc2n1 [Example 30]	5.96
COc1cc(F)cc(-c2cccc([C@@H](C)Nc3nc(C)nc4cc(OC)c(OC)cc34)c2)c1 [Example 65]	5.08
COc1cc2nc(C)nc(N[C@H](C)c3cccc(-c4ccnn4C)c3)c2cc1OC [Example 339]	5.86
COc1cc2nc(C)nc(N[C@@H](C)c3ccc(-c4ccc5c(c4)CCO5)s3)c2cc1OC (racemic) [Example 174]	5.03
COc1cc2nc(C)nc(NC(C)c3csc4ccccc34)c2cc1OC (stereo not shown) [Example 27]	6.40
COc1cc2nc(C)nc(N[C@H](C)c3cccc(-c4ccc(C(C)=O)s4)c3)c2cc1OC [Example 95]	6.33
COc1cc2nc(C)nc(NC(C)c3ccc(-c4cnc5n4CCC5)s3)c2cc1OC (single isomer, unassigned; enantiomer 1) [Example 328]	6.28
Cc1nc(N[C@H](C)c2ccc(F)cc2)c2cc(Br)ccc2n1 [Example 31]	5.02
COc1cc2nc(C)nc(NC(C)c3ccc(-c4ccccc4CN4CC(F)(F)C4)s3)c2cc1OC (stereo not shown) [Example 320]	5.89
COc1cc2nc(C)nc(NC(C)c3ccc(-c4ccccc4CN4CCC4)s3)c2cc1OC (stereo not shown) [Example 317]	7.20
COc1cc2nc(C)nc(NC(C)c3ccc4c(c3)OCCO4)c2cc1OC (stereo not shown) [Example 19]	5.18
COc1cc2nc(C)nc(NC(C)c3ccc(-c4ccc(F)cc4CNC(=O)CNCC(F)(F)F)s3)c2cc1OC (stereo not shown) [Example 295]	5.83

====

Listing of entries alongside the reported pIC50.
molecular target: human SOS1 (loading of human K-Ras^G12C-GDP with fluorescent GTP-analog) (Homo sapiens, UniProt Q07889); assay: Biochemical assay 3: K-Ras^G12C activation assay by hSOS1 (HTRF); details: E-notation values; unit inferred; read-out: Assay 3 (KRAS-Activation) IC50
pIC50: −log10 of the molar value.

molecule	reported-relation	pIC50
COc1cc2nc(C)nc(NC(C)c3sc(-c4ccccc4CN)cc3Cl)c2cc1OC (centres unmarked)	=	6.80
COC(=O)c1ccc2nc(C)nc(N[C@H](C)c3cccc(Cl)c3)c2c1	=	5.47
COc1cc2nc(C)nc(NC(C)c3ccc(-c4ccccc4CN(C)C)s3)c2cc1OC (single isomer, unassigned) [Example 391]	=	7.42
Cc1nc(NC(C)c2ccc(Br)s2)c2cc(N3CCN(Cc4cccnc4)CC3)ccc2n1 (centres unmarked)	=	5.42
COc1cc2nc(C)nc(NC(C)c3ccc(-c4cc(C(=O)O)n(C)n4)s3)c2cc1OC (centres unmarked)	<	4.70
Cc1nc(N[C@H](C)c2cccc(Cl)c2)c2cc(CO)ccc2n1	=	5.04
COc1cc2nc(C)nc(NC(C)c3ccc(-c4c(Cl)cccc4CN)s3)c2cc1OC (centres unmarked)	=	7.50
COc1cc2nc(C)nc(NC(C)c3ccc(-c4ccnc(O)c4)s3)c2cc1OC (centres unmarked)	<	4.70

====

biological target: human SOS1 (nucleotide exchange of K-Ras^G12C) (Homo sapiens, UniProt Q07889); experiment: Biochemical assay 2: K-Ras^G12C activation assay by hSOS1 at high GTP concentration (HTRF); settings: high GTP; read-out: Assay 2 (KRAS-Activation by SOS high GTP) activity expressed as IC50

molecule	unit-string	IC50
COc1cc2nc(C)nc(N[C@H](C)c3cccc(-c4ccc(C(=O)N(C)C)cc4)c3)c2cc1OC [Example 115]	µM	0.802
COc1cc2nc(C)nc(NC(C)c3ccc(-c4cc[nH]n4)s3)c2cc1OC (stereo not shown) [Example 222]	µM	4.44
COc1cc2nc(C)nc(NC(C)c3csc(-c4cnc5n4CCC5)c3)c2cc1OC (stereo not shown) [Example 253]	µM	2.33
COc1cc2nc(C)nc(NC(C)c3ccc(F)c4[nH]ncc34)c2cc1OC (stereo not shown) [Example 5]	µM	1.3

====

target: human SOS1 (loading of human K-Ras^G12C-GDP with fluorescent GTP-analog) (Homo sapiens, UniProt Q07889); experiment: Biochemical assay 3: K-Ras^G12C activation assay by hSOS1 (HTRF); conditions: E-notation values; unit inferred; read-out: Assay 3 (KRAS-Activation) IC50
pIC50: −log10 of the molar value.

compound	reported-relation	pIC50
COc1cc2nc(C)nc(NC(C)c3ccc(-c4cccc(Cl)c4CNC(=O)OC(C)(C)C)s3)c2cc1OC (stereo not shown)	<	4.70
COc1cc2nc(C)nc(NC(C)c3ccc(-c4ccccc4CNC4CC4)s3)c2cc1OC (stereo not shown)	=	6.44
COc1ccc(-c2ccc(C(C)Nc3nc(C)nc4cc(OC)c(OC)cc34)s2)c(C)c1 (stereo not shown)	=	5.44
Cc1nc(N[C@H](C)c2cccc(Cl)c2)c2cc(-c3cnn(C)c3)ccc2n1	=	6.07

====

Listing of entries alongside the reported inhibition at 20 µM.
target: K-Ras^G12C : hSOS1 interaction (Homo sapiens, UniProt Q07889); assay: Biochemical assay 1: K-Ras^G12C interaction assay with hSOS1 (HTRF); assay type: binding; details: read-out: Assay 1 (KRAS-SOS Interaction) activity expressed as % inhibition at 20 μM

compound	unit-string	inhibition at 20 µM
COC(=O)c1cc(-c2ccc(C(C)Nc3nc(C)nc4cc(OC)c(OC)cc34)s2)nn1C (centres unmarked)	%	31
COc1cc2nc(C)nc(NC(C)c3ccc(-n4ccc(CCO)n4)o3)c2cc1OC (centres unmarked)	%	43
COc1cc2nc(C)nc(N[C@@H](C)c3ccc(-c4ccc(N5CCOCC5)cc4)s3)c2cc1OC (stereo in doubt)	%	30
CCCOc1ccccc1-c1ccc([C@H](C)Nc2nc(C)nc3cc(OC)c(OC)cc23)s1 (stereo in doubt)	%	40
COc1cc2nc(C)nc(N[C@@H](C)c3ccc(-c4ccc(NC(=O)OC(C)(C)C)cc4)s3)c2cc1OC (stereo in doubt)	%	43
COc1cc2nc(C)nc(N[C@@H](C)c3ccc(-c4ccccc4Oc4ccccc4)s3)c2cc1OC (stereo in doubt)	%	29
CCCCOc1cccc(F)c1-c1ccc([C@H](C)Nc2nc(C)nc3cc(OC)c(OC)cc23)s1 (stereo in doubt)	%	37
COc1cc2nc(C)nc(NC(C)c3c(C)ccc4[nH]ncc34)c2cc1OC (centres unmarked)	%	44
